# System Tested: T1, sIL-6R (soluble IL-6 receptor; SBH Sciences) (human, UniProt P08887 20-365)
# T1 construct: also called human IL-6R
# T1 sequence: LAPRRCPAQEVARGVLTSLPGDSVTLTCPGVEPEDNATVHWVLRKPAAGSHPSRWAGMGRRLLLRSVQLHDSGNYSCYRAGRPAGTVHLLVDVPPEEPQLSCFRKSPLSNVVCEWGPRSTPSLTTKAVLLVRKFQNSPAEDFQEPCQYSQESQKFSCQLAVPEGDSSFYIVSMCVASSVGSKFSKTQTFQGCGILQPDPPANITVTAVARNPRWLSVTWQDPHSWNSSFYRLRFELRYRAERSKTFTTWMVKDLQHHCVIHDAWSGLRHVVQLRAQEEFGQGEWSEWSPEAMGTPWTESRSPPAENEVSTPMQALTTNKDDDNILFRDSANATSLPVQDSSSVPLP
# Assay Procedure: SPR (BIAcore 3000), antibody on chip, sIL-6R analyte, 25 C
Quantity: koff (s⁻¹)

Binder	Unit	Val
242# (antibody, human IgG1, kappa, V domains shown, also called Sample # 242) VH: QVQLQESGPGLVRPSQTLSLTCTVSGYSITSDHAWSWVRQPPGRGLEWIGYISYSGMITYNPSLKSRVTMLRDTSKNQFSLRLSSVTAADTAVYYCARSLARMTAIDFWGQGSLVTVSS VL: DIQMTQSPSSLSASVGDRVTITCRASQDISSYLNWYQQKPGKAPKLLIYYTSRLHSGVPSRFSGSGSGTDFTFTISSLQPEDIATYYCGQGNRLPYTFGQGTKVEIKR	s⁻¹	8.71e-05
69# (antibody, human IgG1, kappa, V domains shown, also called Sample # 69) VH: QVQLQESGPGLVRPSQTLSLTCTVSGYSITSDHAWSWVRQPPGRGLEWIGFISYSGMTTYNPSLKSRVTMLRDTSKNQFSLRLSSVTAADTAVYYCARCLARTTAIDFWGQGSLVTVSS VL: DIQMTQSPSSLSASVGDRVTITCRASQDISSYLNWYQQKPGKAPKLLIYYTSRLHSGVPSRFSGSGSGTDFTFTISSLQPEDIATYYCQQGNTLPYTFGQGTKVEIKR	s⁻¹	4.14e-05
